Listed compounds paired with reported T/C
- Test system: P388 leukemia ip, CD2F1 mice, survival T/C
- test_summary: NCI In Vivo Anticancer Drug Screen. Data for tumor model P388 Leukemia (intraperitoneal) in CD2F1 (CDF1) mice
- experimental_setup: endpoint: median survival time; dose: 60.0 mg/kg/injection; schedule: Q01DX005 (ip); vehicle: saline with Tween-80; higher = longer survival
Inconclusive results and toxic doses are left out.

Some compounds with recorded T/C:
COC(=O)c1nnn(-c2cccc(C(F)(F)F)c2)c1C(=O)c1ccc(Cl)c(Cl)c1 | 99 % of control
c1cnn([B-]2(n3cccn3)n3ccc[n+]3[B-](n3cccn3)(n3cccn3)n3ccc[n+]32)c1 | 102 % of control
O/C(=C/c1ncnc2ccccc12)c1cccc(Cl)c1 | 102 % of control
COc1ccc(-c2cn3c([nH]c(=O)c4cc(Br)ccc43)c2C#N)cc1 | 91 % of control
c1ccc(N=Nc2ccc3ns[s+]c3c2)cc1 | 92 % of control
NS(=O)(=O)c1ccc(NCc2c3ccccc3nc3cc(Cl)ccc23)cc1 | 104 % of control

We now examine a further compound.
Which T/C reading was recorded for the compound CCOc1ccc(NC(=O)c2c(C)nc(-c3ccccc3)nc2Nc2ccc(Cl)cc2)cc1 ? 90 % of control

###

Listed compounds paired with reported T/C
- System: P388 leukemia ip, CD2F1 mice, survival T/C
- test_summary: NCI In Vivo Anticancer Drug Screen. Data for tumor model P388 Leukemia (intraperitoneal) in CD2F1 (CDF1) mice
- experimental_setup: endpoint: median survival time; dose: 100.0 mg/kg/injection; schedule: Q01DX009 (ip); vehicle: distilled water + Tween-80; higher = longer survival
Inconclusive results and toxic doses are left out. Peptide text beside a SMILES is read from it. * marks the point of attachment. Bz = O=C(c1ccccc1)*; Bn = c1ccc(C*)cc1; βAla = NCCC(=O)O

Which T/C reading was recorded for the compound [NH-]CC(=O)O.[NH-]CC(=O)O.[NH-]CC(=O)O.[NH-]CC(=O)O.[Pt+4] ? 104 % of control

Which T/C reading was recorded for the compound CC(=O)Oc1c([N+](=O)[O-])cccc1[N+](=O)[O-] ? 96 % of control

Which T/C reading was recorded for the compound COC(=O)C(CSCc1ccccc1)NC(=O)C(CSCc1ccccc1)NC(=O)CCNC(=O)c1ccccc1 (stereo unspecified) ({Bz-βAla}-Cys(Bn)-Cys(Bn)-OMe; configuration not given here) ? 94 % of control

Which T/C reading was recorded for the compound CCOC(=O)c1ccc(NC(=O)Nc2nc3ccccc3s2)cc1 ? 90 % of control

Which T/C reading was recorded for the compound CC(=O)OCC1OC(n2cc(CI)nn2)C(OC(C)=O)C(OC(C)=O)C1OC(C)=O (stereo unspecified) ? 115 % of control

Which T/C reading was recorded for the compound CNC(=O)OCC1=C(COC(=O)NC)C2OC1C(C(=O)OC)=C2c1ccc(Cl)cc1 (stereo unspecified) ? 88 % of control

###

Listed compounds paired with reported T/C
- Test system: P388 leukemia ip, CD2F1 mice, survival T/C
- test_summary: NCI In Vivo Anticancer Drug Screen. Data for tumor model P388 Leukemia (intraperitoneal) in CD2F1 (CDF1) mice
- experimental_setup: endpoint: median survival time; dose: 60.0 mg/kg/injection; schedule: Q01DX005 (ip); vehicle: saline; higher = longer survival
Inconclusive results and toxic doses are left out.

COc1ccc2c(c1OC)C(=O)N1C2=Cc2c(cc3c(c2OC)OCO3)CC1N(C)C (stereo not given) | 103 % of control
C=CC1OCCCO1 | 100 % of control
O=C(NCCN1CCOCC1)Nc1ccc2c(c1)OCCOCCOCCOCCO2 | 105 % of control
CN(C)c1ccc(C(c2cc3c(cc2O)OCO3)N2CCN(C(c3ccc(N(C)C)cc3)c3cc4c(cc3O)OCO4)CC2)cc1 (stereo not given) | 96 % of control

Which T/C reading was recorded for the compound CCOC(=O)C1(C)CCCC1N (stereo not given) ? 92 % of control

###

- System: P388 leukemia ip, CD2F1 mice, survival T/C
- test_summary: NCI In Vivo Anticancer Drug Screen. Data for tumor model P388 Leukemia (intraperitoneal) in CD2F1 (CDF1) mice
- experimental_setup: endpoint: median survival time; dose: 12.5 mg/kg/injection; schedule: Q01DX009 (ip); vehicle: Klucel (hydroxypropylcellulose) (HPC); higher = longer survival
Inconclusive results and toxic doses are left out.
Listed compounds paired with reported T/C

O=S(=O)(NCc1ccccc1)c1ccccc1 | 104 % of control
Nc1nc2ncc(CCNc3ccc(C(=O)NC(CCC(=O)O)C(=O)O)cc3)nc2c(=O)[nH]1 (stereo unspecified) | 98 % of control
COC1/C=C\OC2(C)Oc3c(C)c(O)c4c(O)c(c(CN(C)CCO)c(O)c4c3C2=O)NC(=O)/C(C)=C\C=C/C(C)C(O)C(C)C(O)C(C)C(OC(C)=O)C1C (stereo unspecified) | 86 % of control
CCOc1ccc(OCC)c(C(O)C(C)NC(C)C)c1 (stereo unspecified) | 100 % of control
CC(=O)Nc1ccc(Sc2ncc([N+](=O)[O-])s2)cc1 | 100 % of control

We now examine a further compound.
Which T/C reading was recorded for the compound COc1cc2ccc3c[n+]4ccccc4cc3c2cc1OC ? 108 % of control

###

- Tested on: P388 leukemia ip, CD2F1 mice, survival T/C
- test_summary: NCI In Vivo Anticancer Drug Screen. Data for tumor model P388 Leukemia (intraperitoneal) in CD2F1 (CDF1) mice
- experimental_setup: endpoint: median survival time; dose: 1.56 mg/kg/injection; schedule: Q01DX009 (ip); vehicle: water
Inconclusive results and toxic doses are left out. Rule for the calls: active = survival T/C of 150% or more; inactive = T/C below 125% in these data.
Hi! Could you answer with just one of these? true for active, false for inactive

Solved entries:
COc1cccc2c1C(=O)c1c(O)c3c(c(O)c1C2=O)C[C@@](O)(C(=O)COS(=O)(=O)c1ccc(C)cc1)C[C@@H]3OC1CC(N)C(O)C(C)O1 (some centres undefined) | true
Cc1nc(C(=O)O)c(C)c(=O)[nH]1 | false
O=NNc1nc(-c2ccccc2)ns1 | false

Next, consider the following compound.
Entry O=NNc1cncc2ccccc12 : call = ? false

###

- Test system: P388 leukemia ip, CD2F1 mice, survival T/C
- test_summary: NCI In Vivo Anticancer Drug Screen. Data for tumor model P388 Leukemia (intraperitoneal) in CD2F1 (CDF1) mice
- experimental_setup: endpoint: median survival time; dose: 200.0 mg/kg/injection; schedule: Q01DX009 (ip); vehicle: saline; higher = longer survival
- Procedure: The antitumor activity of compounds was measured in mice bearing transplantable tumors. Survival or tumor size were measured and the results are expressed as the measurement made in the treated group (T) divided by the measurement made in the vehicle treated control group (C). The tumor model used in this assay is P388 Leukemia (intraperitoneal) in CD2F1 (CDF1) mice
Inconclusive results and toxic doses are left out.
Listed molecules paired with reported T/C

Which T/C reading was recorded for the molecule CCOC(=O)/C(=C(/C)OC(C)=O)c1ccc([N+](=O)[O-])cc1[N+](=O)[O-] ? 93 % of control

Which T/C reading was recorded for the molecule FC(F)(F)c1cccc(NC(=S)SCc2ccc(Cl)c(Cl)c2)c1 ? 100 % of control

Which T/C reading was recorded for the molecule C=C(C)C(=O)Nc1ccc2nn(-c3ccccc3O)nc2c1 ? 94 % of control

Which T/C reading was recorded for the molecule COc1ccc(/C(C)=N/OC(=O)c2sc3ccccc3c2Cl)cc1CN1CCOCC1 ? 100 % of control

Which T/C reading was recorded for the molecule O=C1c2cccc(O)c2C(=O)c2c(OC3OC(CO)C(OC4OC(CO)C(O)C(O)C4O)C(O)C3O)cccc21 (configuration not stated) ? 102 % of control

###

- Tested on: P388 leukemia ip, CD2F1 mice, survival T/C
- test_summary: NCI In Vivo Anticancer Drug Screen. Data for tumor model P388 Leukemia (intraperitoneal) in CD2F1 (CDF1) mice
- experimental_setup: endpoint: median survival time; dose: 200.0 mg/kg/injection; schedule: Q01DX009 (ip); vehicle: other; higher = longer survival
Toxic doses and inconclusive results are not listed.
result_type: T/C

COc1cc(/C=N/NS(=O)(=O)c2ccc(C)cc2)cc([N+](=O)[O-])c1O | 98 % of control
c1ccc(CCNc2ncnc3nc[nH]c23)cc1 | 102 % of control
CCC(C)C(NC(=O)C(Cc1c[nH]c2ccccc12)NC(=O)OC(C)(C)C)C(=O)OC (configuration not stated) | 110 % of control
CCOC(=O)/C=C/C(=O)NNC(=O)OC(C)(C)C | 108 % of control
Cc1[nH]c(C(=O)O)cc(=O)c1C | 99 % of control
CCOC(=O)CC(Cc1cc(OC)ccc1OC)(C(C)=O)C(C)=O | 98 % of control

API: value(readout= T/C, system= P388 leukemia ip, CD2F1 mice, survival T/C, query= O=NN(c1ccc(Br)cc1)c1ccccn1 ) 114 % of control
